Reference for the values: the supplement of paper PMC12783771

B1: library; numbered along this chain (parent)
chain: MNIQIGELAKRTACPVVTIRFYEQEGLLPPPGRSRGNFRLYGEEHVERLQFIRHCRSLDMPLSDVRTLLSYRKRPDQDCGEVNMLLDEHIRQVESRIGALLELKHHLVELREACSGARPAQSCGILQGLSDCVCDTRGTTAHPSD

Variants of: B1
Assay: sfGFP reporter fluorescence (15 h) (µM FITC); higher = higher leak
Details: library round: Round 0; ligand: none
Parameter threshold = 0.06. Response is 1.0 when sfGFP reporter fluorescence meets or exceeds it, else 0.0.

| VARIANT NAME | ASSIGNED CATEGORY |
| --- | --- |
| P61N D64K L107C | 1.0 |
| Y22W | 1.0 |
| L85M | 0.0 |
| M60L K104V L107C | 1.0 |
| D131N | 1.0 |
| C123D | 0.0 |
| C134M | 1.0 |
| I97Q | 0.0 |
| C114F | 0.0 |
| Y22N | 1.0 |
| V108M | 0.0 |
| R20P | 1.0 |
| L110C | 0.0 |
| D64T | 1.0 |
| C123S | 0.0 |
| E7T | 1.0 |
| L107F | 0.0 |
| M60L D64K L107C G128M | 1.0 |
| P61N K104V L107C | 1.0 |
| Y41M | 1.0 |
| L68H | 1.0 |
| M60L P61N G128I | 1.0 |
| D135R | 1.0 |
| I5A | 0.0 |
| V46N | 0.0 |
| I90P | 0.0 |
| L27Y | 1.0 |
| R39L | 0.0 |
| R111C | 0.0 |
| L110D | 0.0 |
| L110S | 0.0 |
| C79P | 0.0 |
| L85D | 0.0 |
| H89I | 0.0 |
| E43I | 0.0 |
| E94F | 0.0 |
| E109A | 1.0 |
| Y41G | 0.0 |
| L27M | 1.0 |
| E94I | 0.0 |
| P61N K104V L107C G128M | 1.0 |
| R39G | 0.0 |
| V46C | 0.0 |
| L129M | 0.0 |
